B1: Ventral anterior homeobox 1, residues 102 to 157; numbered along this chain, Q5SQQ9 (parent)
chain: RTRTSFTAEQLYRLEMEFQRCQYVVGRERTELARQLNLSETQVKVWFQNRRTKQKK

Variants of: B1
Experimental protocol: abundance fitness (aPCA) (normalised: wild type 0, dead -1); higher = more abundant; growth selection in yeast, the domain comes from the species named
Conditions used: Homo sapiens
Hi, to clarify the labels: Met covers abundance fitness from -0.1 upward, Not met covers anything below -0.1.

L38T | Not met
K56W | Met
T30K | Not met
K55D | Met
N37S | Not met
R3H | Met
T41F | Not met
Y12V | Met
E40S | Not met
E31Q | Not met
W46R | Not met
Q19T | Met
A33G | Not met
K55L | Met
R50S | Not met
Q42V | Not met
E28T | Not met
G26Y | Not met
Q35C | Met
A33S | Not met
R34A | Met
Q35E | Met
